Listed compounds paired with reported MIC
Tested on: Mycobacterium tuberculosis
assay info: Antimycobacterial activity against isoniazid/rifampicin-resistant Mycobacterium tuberculosis isolate 16833 after 7 days by Alamar blue assay
Format: functional
stated conditions: isolate 16833, 168 h

Solved entries (count: 2):
{"columns": ["chemical string", "MIC"],
 "data": [
  ["CO[C@H]1/C=C/O[C@@]2(C)Oc3c(C)c(O)c4c(O)c(c(/C=N/N5CCN(C)CC5)c(O)c4c3C2=O)NC(=O)/C(C)=C\\C=C\\[C@H](C)[C@H](O)[C@@H](C)[C@@H](O)[C@@H](C)[C@H](OC(C)=O)[C@@H]1C", "> 40 µg/mL"],
  ["NNC(=O)c1ccncc1", "> 40 µg/mL"]
]}

Could you now look at the following compound, please?
### Prompt Return the recorded MIC value; entry: `O=C(NCc1ccc2c(c1)CNC2)c1cc([N+](=O)[O-])cc([N+](=O)[O-])c1`
### Response > 10 µg/mL

Every entry's value here was drawn from ChEMBL document CHEMBL4229439.
